experiment: molar heat capacity at constant pressure; xn = mol fraction of the nth substance listed; conditions: 353.15 K; 101 kPa; Liquid; Vacuum adiabatic calorimetry; x1 = 0.5
Catalogue of molar heat capacity at constant pressure readings, one per entry.
Readout Type: molar heat capacity at constant pressure (J/K/mol)

> print(dat)
                                   compound  reading
1           OCCOCCO [diethylene glycol] + O    182.2
2     OCCCOCCCO [4-oxa-1,7-heptanediol] + O    228.3
3       OCCOCCOCCO [triethylene glycol] + O    227.3
4  CC(O)CO (centres undefined) [1,2-propanediol] + O    155.6

====

assay: molar heat capacity at constant pressure; xn = mol fraction of the nth substance listed; conditions: 333.15 K; 101 kPa; Liquid; Vacuum adiabatic calorimetry; x1 = 0.2
Readout Type: molar heat capacity at constant pressure (J/K/mol)

> print(dat)
                                   compound  reading
1       OCCOCCOCCO [triethylene glycol] + O    135.1
2  CC(O)CO (centres undefined) [1,2-propanediol] + O    105.8
3     OCCCOCCCO [4-oxa-1,7-heptanediol] + O      135
4           OCCOCCO [diethylene glycol] + O    117.4

====

test: molar heat capacity at constant pressure; xn = mol fraction of the nth substance listed; details: 313.15 K; 101 kPa; Liquid; Vacuum adiabatic calorimetry; x1 = 0.8
Numbers after ± are expanded uncertainties.
Catalogue of molar heat capacity at constant pressure readings, one per entry.
Readout Type: molar heat capacity at constant pressure

> print(dat)
                                   compound              reading
1           OCCOCCO [diethylene glycol] + O  221.2 ± 0.3 J/K/mol
2       OCCOCCOCCO [triethylene glycol] + O  291.8 ± 0.4 J/K/mol
3  CC(O)CO (centres undefined) [1,2-propanediol] + O  176.4 ± 0.3 J/K/mol
4     OCCCOCCCO [4-oxa-1,7-heptanediol] + O    285 ± 0.4 J/K/mol

====

experiment: molar heat capacity at constant pressure; xn = mol fraction of the nth substance listed; conditions: 333.15 K; 101 kPa; Liquid; Vacuum adiabatic calorimetry; x1 = 0.4
Readout Type: molar heat capacity at constant pressure (J/K/mol)

> print(dat)
                                   compound                              readout.type  reading
1       OCCOCCOCCO [triethylene glycol] + O  molar heat capacity at constant pressure    192.1
2     OCCCOCCCO [4-oxa-1,7-heptanediol] + O  molar heat capacity at constant pressure    191.9
3  CC(O)CO (centres undefined) [1,2-propanediol] + O  molar heat capacity at constant pressure    134.9
4           OCCOCCO [diethylene glycol] + O  molar heat capacity at constant pressure    155.9

====

test: molar heat capacity at constant pressure; details: 313.15 K; 101.33 kPa; Liquid; Vacuum adiabatic calorimetry
Readout Type: molar heat capacity at constant pressure (J/K/mol)

> print(dat)
                                   compound  reading
1  CC(O)CO (centres undefined) [1,2-propanediol]      197
2           OCCOCCOCCO [triethylene glycol]    339.5
3         OCCCOCCCO [4-oxa-1,7-heptanediol]    335.3
4               OCCOCCO [diethylene glycol]    251.3

====

experiment: molar heat capacity at constant pressure; details: 333.15 K; 101.33 kPa; Liquid; Vacuum adiabatic calorimetry
Catalogue of molar heat capacity at constant pressure readings, one per entry.
Readout Type: molar heat capacity at constant pressure (J/K/mol)

> print(dat)
                      molecule     unit  reading
1                    OCCCOCCCO  J/K/mol    348.8
2                      OCCOCCO  J/K/mol    259.2
3  CC(O)CO (centres undefined)  J/K/mol      206
4                   OCCOCCOCCO  J/K/mol    347.9

====

experiment: molar heat capacity at constant pressure; xn = mol fraction of the nth substance listed; settings: 303.15 K; 101 kPa; Liquid; Vacuum adiabatic calorimetry; x1 = 0.6
Readout Type: molar heat capacity at constant pressure (J/K/mol)

> print(dat)
                                   compound                              readout.type     unit  reading
1  CC(O)CO (centres undefined) [1,2-propanediol] + O  molar heat capacity at constant pressure  J/K/mol    150.3
2       OCCOCCOCCO [triethylene glycol] + O  molar heat capacity at constant pressure  J/K/mol    237.8
3           OCCOCCO [diethylene glycol] + O  molar heat capacity at constant pressure  J/K/mol    184.5
4     OCCCOCCCO [4-oxa-1,7-heptanediol] + O  molar heat capacity at constant pressure  J/K/mol    231.9

====

Catalogue of molar heat capacity at constant pressure readings, one per entry.
assay: molar heat capacity at constant pressure; xn = mol fraction of the nth substance listed; conditions: 303.15 K; 101 kPa; Liquid; Vacuum adiabatic calorimetry; x1 = 0.4
Readout Type: molar heat capacity at constant pressure (J/K/mol)

> print(dat)
                                   molecule                              readout.type  reading
1  CC(O)CO (centres undefined) [1,2-propanediol] + O  molar heat capacity at constant pressure      127
2       OCCOCCOCCO [triethylene glycol] + O  molar heat capacity at constant pressure    184.1
3     OCCCOCCCO [4-oxa-1,7-heptanediol] + O  molar heat capacity at constant pressure    181.8
4           OCCOCCO [diethylene glycol] + O  molar heat capacity at constant pressure    148.7

====

test: molar heat capacity at constant pressure; xn = mol fraction of the nth substance listed; conditions: 353.15 K; 101 kPa; Liquid; Vacuum adiabatic calorimetry; x1 = 0.2
Catalogue of molar heat capacity at constant pressure readings, one per entry.
Readout Type: molar heat capacity at constant pressure (J/K/mol)

> print(dat)
                                   molecule                              readout.type     unit  reading
1  CC(O)CO (centres undefined) [1,2-propanediol] + O  molar heat capacity at constant pressure  J/K/mol    108.8
2           OCCOCCO [diethylene glycol] + O  molar heat capacity at constant pressure  J/K/mol    121.7
3     OCCCOCCCO [4-oxa-1,7-heptanediol] + O  molar heat capacity at constant pressure  J/K/mol    139.5
4       OCCOCCOCCO [triethylene glycol] + O  molar heat capacity at constant pressure  J/K/mol    139.7

====

Catalogue of molar heat capacity at constant pressure readings, one per entry.
assay: molar heat capacity at constant pressure; xn = mol fraction of the nth substance listed; conditions: 303.15 K; 101 kPa; Liquid; Vacuum adiabatic calorimetry; x1 = 0.5
Readout Type: molar heat capacity at constant pressure (J/K/mol)

> print(dat)
                                   molecule     unit  reading
1     OCCCOCCCO [4-oxa-1,7-heptanediol] + O  J/K/mol    207.2
2           OCCOCCO [diethylene glycol] + O  J/K/mol    167.6
3  CC(O)CO (centres undefined) [1,2-propanediol] + O  J/K/mol    138.9
4       OCCOCCOCCO [triethylene glycol] + O  J/K/mol    211.3

====

assay: molar heat capacity at constant pressure; xn = mol fraction of the nth substance listed; settings: 323.15 K; 101 kPa; Liquid; Vacuum adiabatic calorimetry; x1 = 0.6
Readout Type: molar heat capacity at constant pressure (J/K/mol)

> print(dat)
                                   compound                              readout.type  reading
1  CC(O)CO (centres undefined) [1,2-propanediol] + O  molar heat capacity at constant pressure    157.7
2     OCCCOCCCO [4-oxa-1,7-heptanediol] + O  molar heat capacity at constant pressure    240.7
3           OCCOCCO [diethylene glycol] + O  molar heat capacity at constant pressure    190.3
4       OCCOCCOCCO [triethylene glycol] + O  molar heat capacity at constant pressure    243.7

====

test: molar heat capacity at constant pressure; xn = mol fraction of the nth substance listed; conditions: 343.15 K; 101 kPa; Liquid; Vacuum adiabatic calorimetry; x1 = 0.2
Numbers after ± are expanded uncertainties.
Catalogue of molar heat capacity at constant pressure readings, one per entry.
Readout Type: molar heat capacity at constant pressure

> print(dat)
                                   molecule              reading
1  CC(O)CO (centres undefined) [1,2-propanediol] + O  107.2 ± 0.3 J/K/mol
2       OCCOCCOCCO [triethylene glycol] + O  137.2 ± 0.3 J/K/mol
3     OCCCOCCCO [4-oxa-1,7-heptanediol] + O  137.1 ± 0.3 J/K/mol
4           OCCOCCO [diethylene glycol] + O  119.3 ± 0.3 J/K/mol
